Reported recombinant barcode read abundance (log10) values follow for various sequences
- Procedure Text: recombinant barcode read abundance after kanamycin selection (control-corrected) (log10(CPM+1)); higher = more efficient recombination; sequences stand for … in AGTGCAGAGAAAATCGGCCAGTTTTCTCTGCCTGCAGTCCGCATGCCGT…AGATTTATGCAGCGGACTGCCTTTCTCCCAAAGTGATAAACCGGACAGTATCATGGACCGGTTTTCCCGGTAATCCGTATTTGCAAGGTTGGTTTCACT; site = the 11-nt target
Could you keep your reply to the number by itself?

Answered cases to consult:
| Sequence Record | Assay Result |
| --- | --- |
| GCCAACCCTTGGGTTCTAACCTGTTGCCT (site GCCAACCCTAT) | 0.0781 |
| CGCCTTCCTTGGGTTCTAACCTGTTGCAT (site CGCCGTCCTAT) | 0.0857 |
| AACTAAACTTGGGTTCTAACCTGTTGCCT (site AACTGAACTAG) | 0.181 |
| AGGAAGACTTGGGTTCTAACCTGTTGCCA (site AGGTAGACTTG) | 0.412 |

Challenge: I am curious: what recombinant barcode read abundance (log10) value has been reported for ACCCTTACTTGGGTTCTAACCTGTTGCCT (site AACCTTACTAG) ?
Response given: 0.0611

---

- Procedure Text: recombinant barcode read abundance after kanamycin selection (control-corrected) (log10(CPM+1)); higher = more efficient recombination; sequences stand for … in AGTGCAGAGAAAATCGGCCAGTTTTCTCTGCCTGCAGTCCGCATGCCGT…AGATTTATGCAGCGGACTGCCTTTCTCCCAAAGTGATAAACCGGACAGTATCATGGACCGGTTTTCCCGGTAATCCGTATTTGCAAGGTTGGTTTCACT; site = the 11-nt target
Property: recombinant barcode read abundance (log10)
Could you keep your reply to the number by itself?

Answered cases to consult:
| Sequence Record | Assay Result |
| --- | --- |
| GACTCTACTTGGGTTCTAACCTGTTGCTT (site GAGTCTACTAA) | 0.068 |
| GTAAGTGCTTGGGTTCTAACCTGTTGCAT (site GTAAGTGCTAT) | 0.829 |
| AATTAGCCTTGGGTTCTAACCTGTTGCCT (site AATTAGCCTAG) | 0.488 |

Would you kindly look at the next entry?
Challenge: I am curious: what recombinant barcode read abundance (log10) value has been reported for GTCAAGTCTTGGGTTCTAACCTGTTGCTC (site GTCAAGTCTGA) ?
Response given: 0.694

---

- Procedure Text: recombinant UMI read abundance after kanamycin selection (control-corrected) (log10(CPM+1)); higher = more efficient recombination; extreme values may be limits of the assay; sequences stand for … in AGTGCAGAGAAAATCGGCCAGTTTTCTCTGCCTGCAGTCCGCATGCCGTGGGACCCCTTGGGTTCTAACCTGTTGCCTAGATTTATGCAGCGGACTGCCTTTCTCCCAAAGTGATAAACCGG…AGGTTGGTTTCACT; site = the 11-nt donor
Property: recombinant UMI read abundance (log10)
Could you keep your reply to the number by itself?

Answered cases to consult:
| Sequence Record | recombinant UMI read abundance (log10) |
| --- | --- |
| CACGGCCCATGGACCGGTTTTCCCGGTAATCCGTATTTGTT (site CACGGCCCTCA) | 0.0268 |
| ACGTCACCATGGACCGGTTTTCCCGGTAATCCGTATTTGTA (site ACGTCACCTTA) | 0.0617 |
| CTAGTCTCATGGACCGGTTTTCCCGGTAATCCGTATTTGAC (site CTAGTTTCTGT) | 0.799 |
| ATCCAAGCATGGACCGGTTTTCCCGGTAATCCGTATTTGAT (site ATCCAAGCTAT) | 1.36 |

Would you kindly look at the next entry?
Challenge: I am curious: what recombinant UMI read abundance (log10) value has been reported for CACTTGGCATGGACCGGTTTTCCCGGTAATCCGTATTTGAA (site CACTTGGCTTA) ?
Response given: 0.431
